Here's what we have: pKi numbers for UniProtKB P30872.
Sequence (P30872 whole entry): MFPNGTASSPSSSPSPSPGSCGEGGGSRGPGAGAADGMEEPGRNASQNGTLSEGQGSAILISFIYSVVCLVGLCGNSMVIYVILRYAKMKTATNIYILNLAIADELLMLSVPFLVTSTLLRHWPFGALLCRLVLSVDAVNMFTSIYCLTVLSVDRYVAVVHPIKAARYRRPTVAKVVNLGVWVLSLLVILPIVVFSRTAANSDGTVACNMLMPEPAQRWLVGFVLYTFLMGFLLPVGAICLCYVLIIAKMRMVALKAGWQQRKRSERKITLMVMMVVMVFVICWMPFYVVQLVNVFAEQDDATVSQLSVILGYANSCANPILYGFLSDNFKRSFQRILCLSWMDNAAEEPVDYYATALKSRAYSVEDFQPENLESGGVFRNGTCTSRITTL
pKi: −log10 of the molar value. Bridge positions count the residues as written; N and C are the ends. Square brackets hold non-standard residues; d marks the D form. Peptide text beside a SMILES is read from it. Phe(4-F) = N[C@@H](Cc1ccc(F)cc1)C(=O)O; dPhe(4-F) = N[C@H](Cc1ccc(F)cc1)C(=O)O; 2Nal = N[C@@H](Cc1ccc2ccccc2c1)C(=O)O; 3Pal = N[C@@H](Cc1cccnc1)C(=O)O; Tle = CC(C)(C)[C@H](N)C(=O)O
Recorded Endpoint: pKi

{"columns": ["Compound", "Measured Result"],
 "data": [
  ["CC(C)(C)[C@@H]1NC(=O)[C@H](CCCCN)NC(=O)[C@@H](Cc2c[nH]c3ccccc23)NC(=O)[C@H](Cc2cccnc2)NC(=O)[C@H](NC(=O)[C@H](N)Cc2ccc(F)cc2)CSSC[C@@H](C(=O)N[C@@H](Cc2ccc3ccccc3c2)C(N)=O)NC1=O (H-[dPhe(4-F)][dC][3Pal][dW]K[Tle]C[2Nal]-NH2; disulfide 2-7)", "< 6.00"],
  ["CC(C)(C)[C@@H]1NC(=O)[C@H](CCCCN)NC(=O)[C@@H](Cc2c[nH]c3ccccc23)NC(=O)[C@H](Cc2cccnc2)NC(=O)[C@H](NC(=O)[C@@H](N)Cc2ccc(F)cc2)CSSC[C@@H](C(=O)N[C@@H](Cc2ccc3ccccc3c2)C(N)=O)NC1=O (H-[Phe(4-F)][dC][3Pal][dW]K[Tle]C[2Nal]-NH2; disulfide 2-7)", "< 6.00"],
  ["CC[C@H](C)[C@@H]1NC(=O)[C@H](CCCCN)NC(=O)[C@@H](Cc2c[nH]c3ccccc23)NC(=O)[C@H](Cc2cccnc2)NC(=O)[C@H](NC(=O)[C@@H](N)Cc2ccc3ccccc3c2)CSSC[C@@H](C(=O)N[C@@H](Cc2ccc3ccccc3c2)C(N)=O)NC1=O (H-[2Nal][dC][3Pal][dW]KIC[2Nal]-NH2; disulfide 2-7)", 6.76]
]}

---

# Assay System: Somatostatin receptor type 3 (Homo sapiens)
# Sequence (P32745 whole entry): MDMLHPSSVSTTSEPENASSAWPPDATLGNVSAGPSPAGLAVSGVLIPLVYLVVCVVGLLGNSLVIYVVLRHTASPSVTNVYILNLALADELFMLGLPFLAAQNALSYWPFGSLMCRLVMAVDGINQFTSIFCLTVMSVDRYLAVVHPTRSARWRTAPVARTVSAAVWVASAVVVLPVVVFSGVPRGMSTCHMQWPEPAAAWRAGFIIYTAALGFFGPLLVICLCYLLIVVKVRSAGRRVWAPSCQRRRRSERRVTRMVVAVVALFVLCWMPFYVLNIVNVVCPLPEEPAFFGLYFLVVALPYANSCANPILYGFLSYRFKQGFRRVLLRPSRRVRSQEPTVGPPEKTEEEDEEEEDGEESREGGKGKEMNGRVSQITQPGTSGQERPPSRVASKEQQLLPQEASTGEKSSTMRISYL
Bridge positions count the residues as written; N and C are the ends. Square brackets hold non-standard residues; d marks the D form. Peptide text beside a SMILES is read from it. 2Nal = N[C@@H](Cc1ccc2ccccc2c1)C(=O)O; 3Pal = N[C@@H](Cc1cccnc1)C(=O)O; Tle = CC(C)(C)[C@H](N)C(=O)O; Nle = CCCC[C@H](N)C(=O)O
Define the label as YES when Ki is strictly less than 0.2 µM and as NO in all remaining cases.

{"columns": ["Molecule", "Classification"],
 "data": [
  ["CCCC[C@@H]1NC(=O)[C@H](CCCCN)NC(=O)[C@@H](Cc2c[nH]c3ccccc23)NC(=O)[C@H](Cc2cccnc2)NC(=O)[C@H](NC(=O)[C@@H](N)Cc2ccc3ccccc3c2)CSSC[C@@H](C(=O)N[C@@H](Cc2ccc3ccccc3c2)C(N)=O)NC1=O (H-[2Nal][dC][3Pal][dW]K[Nle]C[2Nal]-NH2; disulfide 2-7)", "YES"],
  ["CC(C)(C)[C@@H]1NC(=O)[C@H](CCCCN)NC(=O)[C@@H](Cc2c[nH]c3ccccc23)NC(=O)[C@H](Cc2cccnc2)NC(=O)[C@H](NC(=O)[C@@H](N)Cc2c[nH]c3ccccc23)CSSC[C@@H](C(=O)N[C@@H](Cc2ccc3ccccc3c2)C(N)=O)NC1=O (H-W[dC][3Pal][dW]K[Tle]C[2Nal]-NH2; disulfide 2-7)", "NO"],
  ["NCCCC[C@@H]1NC(=O)[C@@H](Cc2c[nH]c3ccccc23)NC(=O)[C@H](Cc2cccnc2)NC(=O)[C@H](NC(=O)[C@@H](N)Cc2ccc3ccccc3c2)CSSC[C@@H](C(=O)N[C@@H](Cc2ccc3ccccc3c2)C(N)=O)NC(=O)CNC1=O", "YES"],
  ["CC(C)[C@@H]1NC(=O)[C@H](CCCCN)NC(=O)[C@@H](Cc2c[nH]c3ccccc23)NC(=O)[C@H](Cc2ccc(O)c(I)c2)NC(=O)C(NC(=O)[C@@H](N)Cc2ccc3ccccc3c2)CSSCC(C(=O)N[C@@H](Cc2ccc3ccccc3c2)C(N)=O)NC1=O (stereo in doubt)", "NO"],
  ["CC(C)(C)[C@@H]1NC(=O)[C@H](CCCCN)NC(=O)[C@@H](Cc2c[nH]c3ccccc23)NC(=O)[C@H](Cc2cccnc2)NC(=O)[C@H](NC(=O)[C@H](N)Cc2ccc(Cl)cc2)CSSC[C@@H](C(=O)N[C@H](Cc2ccc(Cl)cc2)C(N)=O)NC1=O", "NO"],
  ["CC(C)[C@@H]1NC(=O)[C@H](CCCCN)NC(=O)[C@@H](Cc2c[nH]c3ccccc23)NC(=O)[C@H](Cc2cccnc2)NC(=O)[C@H](NC(=O)[C@@H](N)Cc2ccc(Cl)cc2)CSSC[C@@H](C(=O)N[C@@H](Cc2ccc(Cl)cc2)C(N)=O)NC1=O", "YES"],
  ["CC(C)(C)[C@@H]1NC(=O)[C@H](CCCCN)NC(=O)[C@@H](Cc2c[nH]c3ccccc23)NC(=O)[C@H](Cc2cccnc2)NC(=O)[C@H](NC(=O)[C@@H](N)Cc2ccc3ccccc3c2)CSSC[C@@H](C(=O)N[C@@H](Cc2ccc3ccccc3c2)C(N)=O)NC1=O (H-[2Nal][dC][3Pal][dW]K[Tle]C[2Nal]-NH2; disulfide 2-7)", "NO"]
]}
